Tested on: Escherichia coli TOP10
assay-name: shrunken log2 fold change of peptide-encoding DNA abundance (4.5 h post-induction vs induction); higher = less antimicrobial activity (less host growth inhibition)
condition-details: time post-induction: 4.5 h; library: site-saturation at positions 5, 18, 19, 20
property: shrunken log2 fold change
API doc: respond with a numeric literal and nothing else, no unit.

q: Quick check: shrunken log2 fold change of "RRIRGRPPRLPRPRPRPEPPPRP" ?
a: 1.79

q: Item: "RRIRRRPPRLPRPRPRPNLGPRP"
a: 0.00298

q: Item: "RRIRTRPPRLPRPRPRPVATPRP"
a: 0.299

q: Item: "RRIRIRPPRLPRPRPRPVIEPRP"
a: -0.121

q: Item: "RRIRDRPPRLPRPRPRPAKHPRP"
a: 0.0985

q: Item: "RRIRWRPPRLPRPRPRPVMFPRP"
a: -0.0114

q: Item: "RRIRARPPRLPRPRPRPTVCPRP"
a: 0.505

q: Item: "RRIRFRPPRLPRPRPRPQGGPRP"
a: 0.0852

q: Item: "RRIRLRPPRLPRPRPRPVEPPRP"
a: 0.188

q: Item: "RRIRERPPRLPRPRPRPLWIPRP"
a: -0.558

q: Item: "RRIRDRPPRLPRPRPRPAILPRP"
a: 0.099

q: Item: "RRIRDRPPRLPRPRPRPAKCPRP"
a: 0.124

q: Item: "RRIRLRPPRLPRPRPRPQDPPRP"
a: -0.101

q: Item: "RRIRNRPPRLPRPRPRPACRPRP"
a: 0.4

q: Item: "RRIRSRPPRLPRPRPRPYYDPRP"
a: -0.214

q: Item: "RRIRARPPRLPRPRPRPTHPPRP"
a: 0.586

q: Item: "RRIRMRPPRLPRPRPRPAWTPRP"
a: 0.08

q: Item: "RRIRKRPPRLPRPRPRPYAYPRP"
a: -0.12

q: Item: "RRIRYRPPRLPRPRPRPRAAPRP"
a: -0.0447

q: Item: "RRIRIRPPRLPRPRPRPLFCPRP"
a: -0.517

q: Item: "RRIRGRPPRLPRPRPRPLWDPRP"
a: 0.537

q: Item: "RRIRGRPPRLPRPRPRPHDSPRP"
a: -0.0179

q: Item: "RRIRFRPPRLPRPRPRPQQIPRP"
a: -0.54

q: Item: "RRIRMRPPRLPRPRPRPKSYPRP"
a: 0.0526

q: Item: "RRIRERPPRLPRPRPRPVDGPRP"
a: 0.222

q: Item: "RRIRPRPPRLPRPRPRPFYTPRP"
a: -0.429

q: Item: "RRIRQRPPRLPRPRPRPVTWPRP"
a: -0.073

q: Item: "RRIRERPPRLPRPRPRPHLCPRP"
a: -0.101

q: Item: "RRIRARPPRLPRPRPRPKKIPRP"
a: 0.489

q: Item: "RRIRPRPPRLPRPRPRPMFKPRP"
a: -0.0861

q: Item: "RRIRHRPPRLPRPRPRPFWAPRP"
a: 0.245

q: Item: "RRIRRRPPRLPRPRPRPQGMPRP"
a: 0.133

q: Item: "RRIRVRPPRLPRPRPRPFRNPRP"
a: -0.0529

q: Item: "RRIRYRPPRLPRPRPRPTWRPRP"
a: 0.104

q: Item: "RRIRFRPPRLPRPRPRPNNHPRP"
a: -0.571

q: Item: "RRIRTRPPRLPRPRPRPKISPRP"
a: -0.932

q: Item: "RRIRRRPPRLPRPRPRPRTTPRP"
a: 0.406

q: Item: "RRIRKRPPRLPRPRPRPDINPRP"
a: 0.193

q: Item: "RRIRERPPRLPRPRPRPIGVPRP"
a: 0.0489

q: Item: "RRIRPRPPRLPRPRPRPWVMPRP"
a: 0.211

q: Item: "RRIRWRPPRLPRPRPRPYTYPRP"
a: -0.329

q: Item: "RRIRTRPPRLPRPRPRPQDNPRP"
a: -0.669

q: Item: "RRIRDRPPRLPRPRPRPLILPRP"
a: -0.096

q: Item: "RRIRCRPPRLPRPRPRPWWQPRP"
a: 0.0101

q: Item: "RRIRERPPRLPRPRPRPMGYPRP"
a: -0.0965

q: Item: "RRIRVRPPRLPRPRPRPNDLPRP"
a: -0.31

q: Item: "RRIRMRPPRLPRPRPRPQTEPRP"
a: 0.12

q: Item: "RRIRSRPPRLPRPRPRPKWFPRP"
a: -0.0561

q: Item: "RRIRMRPPRLPRPRPRPTIQPRP"
a: 0.318

q: Item: "RRIRGRPPRLPRPRPRPSDMPRP"
a: 0.488

q: Item: "RRIRARPPRLPRPRPRPDEAPRP"
a: 1.12

q: Item: "RRIRIRPPRLPRPRPRPIANPRP"
a: -0.0104

q: Item: "RRIRCRPPRLPRPRPRPKPAPRP"
a: 0.288

q: Item: "RRIRGRPPRLPRPRPRPDMMPRP"
a: 0.023

q: Item: "RRIRQRPPRLPRPRPRPPHTPRP"
a: 1.08

q: Item: "RRIRSRPPRLPRPRPRPHCAPRP"
a: -0.0311

q: Item: "RRIRIRPPRLPRPRPRPWNHPRP"
a: 0.0112

q: Item: "RRIRLRPPRLPRPRPRPCKCPRP"
a: -0.0362

q: Item: "RRIRSRPPRLPRPRPRPDWMPRP"
a: 0.0892

q: Item: "RRIRYRPPRLPRPRPRPYTEPRP"
a: 0.034

q: Item: "RRIRWRPPRLPRPRPRPEWSPRP"
a: 0.0628

q: Item: "RRIRERPPRLPRPRPRPLCPPRP"
a: -0.393

q: Item: "RRIRGRPPRLPRPRPRPAKHPRP"
a: 0.209

###

Tested on: Escherichia coli TOP10;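 also: peptides expressed intracellularly from a pBAD plasmid library in pooled LB shake-flask culture, induced with 0.3% L-arabinose, DNA abundance read by NGS, three biological replicates, DESeq2 with apeglm shrinkage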
assay-name: shrunken log2 fold change of peptide-encoding DNA abundance (4.5 h post-induction vs induction); higher = less antimicrobial activity (less host growth inhibition)
condition-details: time post-induction: 4.5 h; library: site-saturation at positions 5, 18, 19, 20
property: shrunken log2 fold change
API doc: respond with a numeric literal and nothing else, no unit.

q: Quick check: shrunken log2 fold change of "RRIRQRPPRLPRPRPRPYTHPRP" ?
a: -0.723

q: Item: "RRIRKRPPRLPRPRPRPMLSPRP"
a: -0.227

q: Item: "RRIRRRPPRLPRPRPRPIQGPRP"
a: -0.00136

q: Item: "RRIRHRPPRLPRPRPRPKCAPRP"
a: -0.0408

q: Item: "RRIRRRPPRLPRPRPRPGKLPRP"
a: 0.0788

q: Item: "RRIRQRPPRLPRPRPRPAMTPRP"
a: 0.00659

q: Item: "RRIRRRPPRLPRPRPRPSVMPRP"
a: 0.157

q: Item: "RRIRDRPPRLPRPRPRPNLDPRP"
a: -0.103

q: Item: "RRIRTRPPRLPRPRPRPAQWPRP"
a: 0.0699

q: Item: "RRIRSRPPRLPRPRPRPGGQPRP"
a: 0.279

q: Item: "RRIRLRPPRLPRPRPRPHDYPRP"
a: -0.398

q: Item: "RRIRTRPPRLPRPRPRPQSMPRP"
a: 0.13

q: Item: "RRIRMRPPRLPRPRPRPMSHPRP"
a: -0.121

q: Item: "RRIRPRPPRLPRPRPRPFTTPRP"
a: -0.0187

q: Item: "RRIRGRPPRLPRPRPRPNLFPRP"
a: 0.129

q: Item: "RRIRHRPPRLPRPRPRPGYEPRP"
a: -0.454

q: Item: "RRIRLRPPRLPRPRPRPTDNPRP"
a: -0.391

q: Item: "RRIRERPPRLPRPRPRPDQPPRP"
a: 0.0454

q: Item: "RRIRMRPPRLPRPRPRPKFWPRP"
a: 1.87

q: Item: "RRIRNRPPRLPRPRPRPSCKPRP"
a: 0.065

q: Item: "RRIRARPPRLPRPRPRPRPQPRP"
a: 0.731

q: Item: "RRIRCRPPRLPRPRPRPPRGPRP"
a: 0.67

q: Item: "RRIRNRPPRLPRPRPRPVFRPRP"
a: -0.165

q: Item: "RRIRPRPPRLPRPRPRPINCPRP"
a: -0.126

q: Item: "RRIRSRPPRLPRPRPRPDVKPRP"
a: -0.0928

q: Item: "RRIRTRPPRLPRPRPRPNFQPRP"
a: 0.00569

q: Item: "RRIRLRPPRLPRPRPRPIPDPRP"
a: 0.00718

q: Item: "RRIRWRPPRLPRPRPRPRQTPRP"
a: 0.0702

q: Item: "RRIRERPPRLPRPRPRPKHYPRP"
a: -0.373

q: Item: "RRIRNRPPRLPRPRPRPKKAPRP"
a: -0.0485

q: Item: "RRIRMRPPRLPRPRPRPPKAPRP"
a: 1.02

q: Item: "RRIRNRPPRLPRPRPRPTYVPRP"
a: -0.143
